Measured values drawn from patent US20230151003A1 for this set.

Biological target: UniProt P35968
Sequence (P35968 20-1356): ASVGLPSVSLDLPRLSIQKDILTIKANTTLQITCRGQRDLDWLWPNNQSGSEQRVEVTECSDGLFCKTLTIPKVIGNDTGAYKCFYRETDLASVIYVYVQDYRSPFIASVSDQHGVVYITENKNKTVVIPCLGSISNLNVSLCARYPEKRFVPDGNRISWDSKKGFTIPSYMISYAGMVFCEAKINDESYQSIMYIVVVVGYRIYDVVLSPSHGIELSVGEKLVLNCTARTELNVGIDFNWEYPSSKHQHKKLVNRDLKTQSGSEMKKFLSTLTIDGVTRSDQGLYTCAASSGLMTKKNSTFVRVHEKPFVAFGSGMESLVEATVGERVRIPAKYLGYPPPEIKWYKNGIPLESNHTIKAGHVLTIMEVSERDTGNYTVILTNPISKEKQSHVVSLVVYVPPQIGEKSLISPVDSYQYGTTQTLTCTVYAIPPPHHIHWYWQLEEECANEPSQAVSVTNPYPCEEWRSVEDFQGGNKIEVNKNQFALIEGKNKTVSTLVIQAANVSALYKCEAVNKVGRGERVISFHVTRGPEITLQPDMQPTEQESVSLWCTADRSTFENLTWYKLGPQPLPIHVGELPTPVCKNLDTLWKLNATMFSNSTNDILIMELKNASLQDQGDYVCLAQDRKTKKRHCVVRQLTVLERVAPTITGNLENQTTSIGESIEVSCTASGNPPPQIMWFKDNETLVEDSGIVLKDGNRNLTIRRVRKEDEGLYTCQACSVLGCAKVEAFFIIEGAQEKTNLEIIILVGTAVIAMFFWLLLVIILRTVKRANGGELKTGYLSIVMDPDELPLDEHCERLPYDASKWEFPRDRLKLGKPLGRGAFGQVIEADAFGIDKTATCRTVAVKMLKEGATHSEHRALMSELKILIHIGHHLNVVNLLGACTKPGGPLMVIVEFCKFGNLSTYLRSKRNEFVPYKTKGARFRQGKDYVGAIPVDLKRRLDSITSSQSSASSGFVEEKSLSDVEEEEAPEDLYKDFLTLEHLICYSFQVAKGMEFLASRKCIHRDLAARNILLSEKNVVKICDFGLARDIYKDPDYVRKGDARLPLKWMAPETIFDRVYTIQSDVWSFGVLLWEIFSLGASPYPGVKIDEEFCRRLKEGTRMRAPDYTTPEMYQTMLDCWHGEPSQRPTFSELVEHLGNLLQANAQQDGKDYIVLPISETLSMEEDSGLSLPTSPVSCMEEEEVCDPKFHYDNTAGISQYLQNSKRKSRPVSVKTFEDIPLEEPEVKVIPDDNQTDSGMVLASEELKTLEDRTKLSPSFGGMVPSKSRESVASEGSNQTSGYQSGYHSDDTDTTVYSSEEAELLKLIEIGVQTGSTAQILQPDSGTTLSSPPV
Assay: KDR autophosphorylation ELISA in HUVEC cells
Format: cell-based
Design: endogenous in cells; host or cells: HUVEC (Lonza #C2519A)
Conditions: Table 3 Cellular Activities, VEGF165-stimulated, phospho-KDR ELISA
Structures can show the parent of a compound that is named as a salt.
For each entry below, report its IC50 value.

COc1cc2nccc(Oc3ccc(NC(=O)c4cnc(C)c(-c5cnoc5)c4O)cc3F)c2nc1OC :: ≤ 100 nM
COc1cc2nccc(Oc3ccc(NC(=O)c4cccn(-c5cc[n+]([O-])cc5)c4=O)cc3F)c2nc1OC [Compound 247, hydrochloride] :: 100 to 300 nM
COc1cc2nccc(Oc3ccc(NC(=O)c4c(C)n(C)c(C)c(-c5cccs5)c4=O)cc3F)c2nc1OC :: ≤ 100 nM

Please give IC50, item by item, for the list that follows.
1. COc1cc2nccc(Oc3ccc(NC(=O)c4c5n(cc(-c6ccco6)c4=O)CCOC5)cc3F)c2nc1OC
2. COc1cc2nccc(Oc3ccc(NC(=O)c4c(C)nc(C)c(-c5ccc(C)o5)c4O)cc3F)c2nc1OC

["300 to 1000 nM", "≤ 100 nM"]

Please give IC50, item by item, for the list that follows.
1. COc1cc2nccc(Oc3ccc(NC(=O)c4c(C)n(C)c(C)c(-c5ccco5)c4=O)cc3)c2nc1OC
2. COCc1nc(C)c(-c2ccc(F)cn2)c(O)c1C(=O)Nc1ccc(Oc2ccnc3cc(OC)c(OC)nc23)c(F)c1
3. COc1cc2nccc(Oc3ccc(NC(=O)c4c(C)ncc(-c5ncc(F)cc5C)c4O)cc3F)c2nc1OC
4. COc1cc2nccc(Oc3ccc(NC(=O)c4cccn(-c5ccc(F)cn5)c4=O)cc3F)c2nc1OC

1: 300 to 1000 nM; 2: ≤ 100 nM; 3: ≤ 100 nM; 4: ≤ 100 nM

Please give IC50, item by item, for the list that follows.
1. COc1cc(-n2c(C)ccc(C(=O)Nc3ccc(Oc4ccnc5cc(OC)c(OC)nc45)c(F)c3)c2=O)ccn1
2. COc1cc2nccc(Oc3ccc(NC(=O)c4cn(CCF)c(C)c(-c5cccs5)c4=O)cc3F)c2nc1OC
3. COc1cnc2c(Oc3ccc(NC(=O)c4cn(CCF)c(C)c(-c5cccs5)c4=O)cc3F)ccnc2c1
4. COc1cc2nccc(Oc3ccc(NC(=O)c4cn(C)c(C)c(-c5ccc(F)cn5)c4=O)cc3)c2nc1OC
5. COc1cc2nccc(Oc3ccc(NC(=O)c4c5n(cc(-c6ccc(C)s6)c4=O)CCOC5)cc3)c2nc1OC
6. CCOc1ccn(-c2ccc(F)cn2)c(=O)c1C(=O)Nc1ccc(Oc2ccnc3cc(OC)c(OC)nc23)c(F)c1
7. COc1nc2c(Oc3ccc(NC(=O)c4c(C)n(C)c(C)c(-c5ccco5)c4=O)cc3F)ccnc2cc1OCCC1CCC1

["≤ 100 nM", "100 to 300 nM", "300 to 1000 nM", "300 to 1000 nM", "300 to 1000 nM", "100 to 300 nM", "≤ 100 nM"]

Please give IC50, item by item, for the list that follows.
1. COc1cnc2c(Oc3ccc(NC(=O)c4cnc(C)c(-c5ccco5)c4O)cc3F)ccnc2c1
2. COc1cc2nccc(Oc3ccc(NC(=O)c4cnc(C)c(-c5ccco5)n4)cc3F)c2nc1OC
3. COc1cc2nccc(Oc3ccc(NC(=O)c4cnc(C)c(-c5ccco5)c4O)cc3)c2cc1OC
4. COc1cc2nccc(Oc3ccc(NC(=O)c4ccc(C)n(-c5ccnc(C)c5)c4=O)cc3F)c2nc1OC
5. COCc1nc(C)c(-c2ncccc2C)c(O)c1C(=O)Nc1ccc(Oc2ccnc3cc(OC)c(OC)nc23)c(F)c1
6. COc1cnc2c(Oc3ccc(NC(=O)c4c(C)n(C)c(C)c(-c5ccco5)c4=O)cc3F)ccnc2c1
7. C=CCc1ccc(-c2c(C)ncc(C(=O)Nc3ccc(Oc4ccnc5cc(OC)c(OC)nc45)c(F)c3)c2O)o1
8. COc1cc2nccc(Oc3ccc(NC(=O)c4c(C)ccn(-c5ccc(F)cn5)c4=O)cc3F)c2nc1OC

["≤ 100 nM", "300 to 1000 nM", "≤ 100 nM", "≤ 100 nM", "≤ 100 nM", "300 to 1000 nM", "≤ 100 nM", "≤ 100 nM"]
